Biological target: 17-beta-hydroxysteroid dehydrogenase type 1 (Homo sapiens)
Sequence (whole entry): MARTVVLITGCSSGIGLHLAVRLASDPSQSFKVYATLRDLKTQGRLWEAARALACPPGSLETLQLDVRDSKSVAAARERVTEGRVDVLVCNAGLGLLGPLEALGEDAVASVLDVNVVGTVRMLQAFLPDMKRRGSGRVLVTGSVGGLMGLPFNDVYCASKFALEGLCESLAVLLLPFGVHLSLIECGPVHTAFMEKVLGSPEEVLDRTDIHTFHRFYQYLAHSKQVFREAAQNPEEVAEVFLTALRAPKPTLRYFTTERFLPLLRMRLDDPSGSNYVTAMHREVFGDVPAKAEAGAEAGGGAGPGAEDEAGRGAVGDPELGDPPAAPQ
Assay: Inhibition of [3H]E1 binding to human recombinant 17beta-HSD1 expressed in baculovirus-infected Sf9 cells at 100 nM after 10 mins by fluid scintillation counting
ENDPOINT: inhibition (%)

# CHEMICAL STRUCTURE, EXPERIMENTAL TARGET, ENDPOINT, UNIT, CMP, QUANTITATIVE RESULT
records = [
    ("Oc1cccc(-c2ccc3c(-c4cccc(O)c4)c(O)ccc3c2)c1", "17-beta-hydroxysteroid dehydrogenase type 1 (Homo sapiens)", "inhibition", "%", "=", 83),
    ("CC(=O)Nc1cccc(-c2c(O)ccc3cc(-c4cccc(O)c4)ccc23)c1", "17-beta-hydroxysteroid dehydrogenase type 1 (Homo sapiens)", "inhibition", "%", "=", 35),
    ("O=C(O)c1cccc(-c2c(O)ccc3cc(-c4cccc(O)c4)ccc23)c1", "17-beta-hydroxysteroid dehydrogenase type 1 (Homo sapiens)", "inhibition", "%", "=", 45),
    ("Oc1cccc(-c2ccc3c(-c4cccnc4)c(O)ccc3c2)c1", "17-beta-hydroxysteroid dehydrogenase type 1 (Homo sapiens)", "inhibition", "%", "=", 87),
    ("CS(=O)(=O)Nc1cccc(-c2c(O)ccc3cc(-c4cccc(O)c4)ccc23)c1", "17-beta-hydroxysteroid dehydrogenase type 1 (Homo sapiens)", "inhibition", "%", "=", 88),
    ("O=C(O)CCC(=O)Nc1cccc(-c2c(O)ccc3cc(-c4cccc(O)c4)ccc23)c1", "17-beta-hydroxysteroid dehydrogenase type 1 (Homo sapiens)", "inhibition", "%", "<", 10),
    ("Oc1cccc(-c2ccc3c(-c4ccoc4)c(O)ccc3c2)c1", "17-beta-hydroxysteroid dehydrogenase type 1 (Homo sapiens)", "inhibition", "%", "=", 83),
    ("Oc1cccc(-c2ccc3c(-c4ccc(N5CCOCC5)cc4)c(O)ccc3c2)c1", "17-beta-hydroxysteroid dehydrogenase type 1 (Homo sapiens)", "inhibition", "%", "=", 32),
    ("COc1ccc(-c2c(O)ccc3cc(-c4cccc(O)c4)ccc23)cn1", "17-beta-hydroxysteroid dehydrogenase type 1 (Homo sapiens)", "inhibition", "%", "=", 86),
    ("Oc1cccc(-c2ccc3c(-c4ccncc4)c(O)ccc3c2)c1", "17-beta-hydroxysteroid dehydrogenase type 1 (Homo sapiens)", "inhibition", "%", "=", 74),
    ("Nc1cccc(-c2c(O)ccc3cc(-c4cccc(O)c4)ccc23)c1", "17-beta-hydroxysteroid dehydrogenase type 1 (Homo sapiens)", "inhibition", "%", "=", 74),
]

###

experiment: Half life in Wistar rat at 50 mg/kg, po administered as single dose by LC-MS/MS analysis; type: ADME, organism-based; parameters: dose 50 mg/kg, route oral; conditions: in vivo

# CHEMICAL STRUCTURE, UNIT, half-life
records = [
    ("Oc1cccc(-c2ccc3c(-c4cccnc4)c(O)ccc3c2)c1", "h", 1.5),
    ("Nc1cccc(-c2c(O)ccc3cc(-c4cccc(O)c4)ccc23)c1", "h", 1.6),
]
